apparent KD of K4 kissing-loop reporter reference
Tested on: K4 kissing-loop RNA reporter;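 note: bound reporter read as fluorescence of individual clusters on recovered sequencing chips by microscopy, with normalized cluster intensities fitted with a binding model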
procedure_text: apparent KD of K4 kissing-loop reporter; higher = weaker reporter binding
measurement_parameters: Eterna round: R107; input ligand: arginine 13.2 mM

[
  {
    "residue_string": "UGAUACCAGACGGCCGCCACUCCCGUAAGUCAAAGACUUACGAAGAGAGUUGUCCAGUGAUGUUGGAGGACCGGGUCUGGUAUCU [FiskerMod 13 - Jieux - Exclusion - Tryptophan B]",
    "tgt": "K4 kissing-loop RNA reporter",
    "result_units": "nM",
    "apparent KD of K4 kissing-loop reporter": 208
  },
  {
    "residue_string": "GCGAACAUUCGCAGUGAUGUUGCGACGGAAGGAGCGCGUGAAAACGCAGGUAGGUCGCCGACAUACUUAAUUUUACAGUGUUCGC [Arginine A K4 29]",
    "tgt": "K4 kissing-loop RNA reporter",
    "result_units": "nM",
    "apparent KD of K4 kissing-loop reporter": 191
  },
  {
    "residue_string": "ACGCUUGAAUAACAAGCGAAAUAAAAUUCGCGAGGACCGGUACGGCCGCCACUCGCUAACUGCGAGUGAUGUUCGAUAAUAAAAU [Mat - Mod of OpenEnded 3 - D16]",
    "tgt": "K4 kissing-loop RNA reporter",
    "result_units": "nM",
    "apparent KD of K4 kissing-loop reporter": 80.2
  }
]

These measurements were taken from the supplement of paper PMC9170038.
